- Tested on: Balb/c spleen cells stimulated by irradiated or mitomycin C treated CBA spleen cells
- Assay Overview: Murine mixed lymphocyte reaction (MLR)
- Type: cell-based
- Run Conditions: Mus musculus, 120 h, 5 days co-incubation, labeled precursor incorporation into DNA, read-out: IC50 (concentration resulting in 50% inhibition of cell proliferation)
Measured Endpoint: pIC50
// returns pIC50 (minus log10 of molar concentration), number only

Prompt line: Find the measured pIC50 of Cn1cc(C2=C(c3cn(C4CCNCC4)c4ccccc34)C(=O)NC2=O)c2ccccc21 [Compound B] and report it.
Response line: 6.71
